- System: PPARg:RXRa IVT, anti-PPARg (NR concentration 270 nM, RXRa partner concentration 90 nM)
- runDescription: PBM binding z-score (relative to random genomic background probes); higher = stronger binding; sequences stand for … in GC…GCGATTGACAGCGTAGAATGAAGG
PBM binding z-score listing for selected sequences.

[
  {
    "sequenceRecord": "ACTATTAGTTGAGACGAGGTCAACCGATAGGTTG",
    "PBM binding z-score": 2.11
  },
  {
    "sequenceRecord": "CCGATTGGGGCATAAGGTTACCATAAGCCAGCCC",
    "PBM binding z-score": 1.53
  },
  {
    "sequenceRecord": "GAACCAAGGTGAATAGGTCGTTGATGAGTAGGCG",
    "PBM binding z-score": 2.56
  },
  {
    "sequenceRecord": "TGAATGAGGTTATAAGATCTGGGAACGTTGCAAA",
    "PBM binding z-score": 1.57
  },
  {
    "sequenceRecord": "CAGCCTAGGCCAGGGCCAGTATAGGAGGAACGTT",
    "PBM binding z-score": -0.938
  },
  {
    "sequenceRecord": "CATTCAGGGTCAGCTAGGCCAGAGTAGGGACGGC",
    "PBM binding z-score": 3.11
  }
]

###

- System: PXR homodimer (NR concentration 270 nM)
- runDescription: PBM binding z-score (relative to random genomic background probes); higher = stronger binding; sequences stand for … in GC…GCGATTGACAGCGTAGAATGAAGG
Reported PBM binding z-score by item:

[
  {
    "sequenceRecord": "CGAACTAGGTCATTGACAGGACTGTGAATAGTAA",
    "targetEntity": "PXR homodimer (NR concentration 270 nM)",
    "PBM binding z-score": 0.155
  },
  {
    "sequenceRecord": "TAGCCTAGGTCAGATCAGGCCAGTATACGCTATA",
    "targetEntity": "PXR homodimer (NR concentration 270 nM)",
    "PBM binding z-score": -0.691
  },
  {
    "sequenceRecord": "TATACAGGGTCAAGGGCCAGAGTACGAATGTCGA",
    "targetEntity": "PXR homodimer (NR concentration 270 nM)",
    "PBM binding z-score": 0.571
  },
  {
    "sequenceRecord": "TCTCGGAGGACACGAAAGGTCACAGCTCGACATC",
    "targetEntity": "PXR homodimer (NR concentration 270 nM)",
    "PBM binding z-score": 1.09
  },
  {
    "sequenceRecord": "TCGTGTAGGTTAGGGGCATTCAGAATGGCGTCGA",
    "targetEntity": "PXR homodimer (NR concentration 270 nM)",
    "PBM binding z-score": 0.406
  },
  {
    "sequenceRecord": "CAAACCAGGTCAAGGTCAAAGTCGGTTTGTGCCA",
    "targetEntity": "PXR homodimer (NR concentration 270 nM)",
    "PBM binding z-score": 2.63
  },
  {
    "sequenceRecord": "ACTATTAGTTGACTTAGGGTAACCGATACGACGC",
    "targetEntity": "PXR homodimer (NR concentration 270 nM)",
    "PBM binding z-score": 0.517
  },
  {
    "sequenceRecord": "CCTCGGAGGACAGAAGGTCTGAGCTGTCCGCTTT",
    "targetEntity": "PXR homodimer (NR concentration 270 nM)",
    "PBM binding z-score": -0.886
  },
  {
    "sequenceRecord": "TCTATTATTTGATTAGGGCAACCGAAACAGCGGA",
    "targetEntity": "PXR homodimer (NR concentration 270 nM)",
    "PBM binding z-score": 2.04
  },
  {
    "sequenceRecord": "CCTGCTAGGTCAATGGTCTGCTAAAGCAGCTCGC",
    "targetEntity": "PXR homodimer (NR concentration 270 nM)",
    "PBM binding z-score": -0.482
  },
  {
    "sequenceRecord": "CCAGACAGGTGAGAAGGTAACTTAGCCTCGATTA",
    "targetEntity": "PXR homodimer (NR concentration 270 nM)",
    "PBM binding z-score": 0.402
  },
  {
    "sequenceRecord": "CAAACTAGGTCAAGTTCAAAGTCGGTTTGTGCCA",
    "targetEntity": "PXR homodimer (NR concentration 270 nM)",
    "PBM binding z-score": 6.98
  },
  {
    "sequenceRecord": "TGTCTAAGTTCAAAGGTAACGTAAGTATCCACAC",
    "targetEntity": "PXR homodimer (NR concentration 270 nM)",
    "PBM binding z-score": 3.65
  },
  {
    "sequenceRecord": "ACAGACAGGTAAGTGAAGGTAACTCAGCTGGACG",
    "targetEntity": "PXR homodimer (NR concentration 270 nM)",
    "PBM binding z-score": 0.283
  },
  {
    "sequenceRecord": "CCTATTGGTTGACCATAAGGGCAACCGAAGCTCG",
    "targetEntity": "PXR homodimer (NR concentration 270 nM)",
    "PBM binding z-score": -0.293
  },
  {
    "sequenceRecord": "CTACCAAGGTGAATAAGGTCGTTGATTACTATTC",
    "targetEntity": "PXR homodimer (NR concentration 270 nM)",
    "PBM binding z-score": 2.32
  },
  {
    "sequenceRecord": "CAAACTAGGTCAAGCTCAAAGTCGGTTTGTGCCA",
    "targetEntity": "PXR homodimer (NR concentration 270 nM)",
    "PBM binding z-score": -0.401
  },
  {
    "sequenceRecord": "CCTCGTAGGACAACAGGAGGTCAGAGCTGCCAGA",
    "targetEntity": "PXR homodimer (NR concentration 270 nM)",
    "PBM binding z-score": 0.26
  },
  {
    "sequenceRecord": "CTCGAAAGGTCGTGCTCAGGAGAGTATACCAAAC",
    "targetEntity": "PXR homodimer (NR concentration 270 nM)",
    "PBM binding z-score": 0.45
  },
  {
    "sequenceRecord": "ATAATGAGGTTATACGTAGATCAGGGAAGAAAGT",
    "targetEntity": "PXR homodimer (NR concentration 270 nM)",
    "PBM binding z-score": 0.97
  },
  {
    "sequenceRecord": "TCTCGGAGGACAGGAAGGTCAGAGCTTTCCAGAG",
    "targetEntity": "PXR homodimer (NR concentration 270 nM)",
    "PBM binding z-score": -0.0214
  },
  {
    "sequenceRecord": "AGAATGAGGTTATTAAGATCCGGGAATTGCGGTC",
    "targetEntity": "PXR homodimer (NR concentration 270 nM)",
    "PBM binding z-score": 0.153
  },
  {
    "sequenceRecord": "TCTGGCAGGCCAGAGGGTCACTCAAGAGGTACGG",
    "targetEntity": "PXR homodimer (NR concentration 270 nM)",
    "PBM binding z-score": -0.371
  },
  {
    "sequenceRecord": "CCTGCCAGGTCATGGTCAGCTAATCTACAGTATG",
    "targetEntity": "PXR homodimer (NR concentration 270 nM)",
    "PBM binding z-score": 0.231
  },
  {
    "sequenceRecord": "ACAGACAGGTGAGTGAAGGTAACTAAGCTGGACG",
    "targetEntity": "PXR homodimer (NR concentration 270 nM)",
    "PBM binding z-score": -0.0557
  },
  {
    "sequenceRecord": "CAAACTAGGTCCAAGGTCAAAGTCGAGCCAACCA",
    "targetEntity": "PXR homodimer (NR concentration 270 nM)",
    "PBM binding z-score": 1.57
  }
]
